system: T1, human Siglec15-Fc fusion protein (human, UniProt Q6ZMC9 20-263)
T1 construct: Bought protein (Acro #SG5-H5253 is named for the selection); also called recombinant Siglec 15-Fc fusion protein (Acro #SG5-H5253); human Siglec15-Fc protein; not shown: Fc part of the bought fusion protein
T1 sequence (looked up): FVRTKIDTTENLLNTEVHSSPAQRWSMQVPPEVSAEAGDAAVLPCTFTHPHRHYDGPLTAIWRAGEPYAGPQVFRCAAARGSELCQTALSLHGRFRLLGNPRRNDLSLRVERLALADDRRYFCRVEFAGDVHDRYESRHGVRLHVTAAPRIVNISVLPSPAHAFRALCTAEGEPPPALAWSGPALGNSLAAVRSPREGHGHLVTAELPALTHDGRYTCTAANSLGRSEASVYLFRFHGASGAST
assay_summary: SPR Biacore T200; Siglec15-Fc captured on Protein A chip, scFv as analyte
Lab note: compare koff with 0.0008 s⁻¹, writing 1 if less and 0 if equal or more.

Study these solved cases before continuing.
*Q* Take the binder 2020EP032-C09 scFv (scFv, V domains shown, Tested as a single-chain scFv made in E. coli with a C-terminal flag and 6x His tag) VH: QVQLVESGGGLVKPGGSLRLSCAASGFSFNNAWMSWVRQAPGKGLEWVGRIKSKTDDATTEYAAPVEGRFTISRDDSKNMLYLQMDSLKTEDTAVYYCTTDLRWEELPMYWGQGTLVTVSS VL: VIWMTQSPSSLSASVGDRVTITCRASQGIRNDLGWYQQKPGKAPKVLIYAASSLQSGVPSRFSGSGSGTDFTLTISSLQPEDFATYYCLQDYNYPQTFGQGTKVGIKR and say whether its koff is less than 0.0008 s⁻¹.
*A* 0

*Q* Would you kindly repeat that for 2020EP085-G5 scFv (scFv, V domains shown, Tested as a single-chain scFv made in E. coli with a C-terminal flag and 6x His tag) VH: QVQLVQSGAEVKKPGASVKVSCKASGYTFTDYYMHWVRQAPGQGLEWMGWINPNSGGTNYAQKFQGRVTMTRDTSITTAYMELSWLRSDDTAVYYCAREVGTTTTGVDYWGQGTLVTVSS VL: VIWMTQSPSSLSASVGDRVTFTCQASQDINIYLTWYQIKPGKAPKVLIYDASTLESGVPSRFSGSGFGTHFVFTISSLQPEDFATYYCQHYDSLPLTFGGGTKVEIK ?
*A* 0

Now turn to the next binder.
*Q* Take the binder 2020EP032-A08 scFv (scFv, V domains shown, Tested as a single-chain scFv made in E. coli with a C-terminal flag and 6x His tag) VH: QVQLQQWGAGLLKPSETLSLTCAVYGGSFSGYYWSWIRQPPGKGLEWIGEINHSGSTNYNPSLKSRVTISVDTSKNQFSLKLSSVTAADTAVYYCARGVYYYDSSGPRDYFDYWGQGTLVTVSS VL: DIVMTQSPSSLSASVGDRVTITCQASQDISNYLNWYQQKPGKAPKLLIYDASNLKTGVPSRFSGSGSGTDFTFTITSLQPEDIGTYFCQQYGNLPYTFGQGTKLEIK and say whether its koff is less than 0.0008 s⁻¹.
*A* 0
